// data source = PubChem BioAssay AID1845219

Answer each item with its documented viability, T/C.
Tested on: SYO-1 tumor spheroids, viability % test/control
ASSAY_NAME: Anticancer human tumor SYO-1 cell line growth inhibition;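 note: spheroids exposed to agents for 7 days before viability read; 100% = DMSO vehicle control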
CONDITION_SUMMARY: second compound 0.03 µM; first compound 1 µM; active compounds read low; spheroids with HUVEC and MSC
One number for each entry, in %.

Batch lookup, viability, T/C per entry.
1. Cc1cc(C)c(CNC(=O)c2cc(-c3ccc(CN4CCOCC4)cc3)cc3c2cnn3C2CCCC2)c(=O)[nH]1 + CC[C@@]1(O)C(=O)OCc2c1cc1n(c2=O)Cc2cc3c(CN(C)C)c(O)ccc3nc2-1
2. COc1cc(C)[nH]c(=O)c1CN1CCc2c(Cl)cc(C(OC)C3COC3)c(Cl)c2C1=O (stereo unspecified) + CC[C@@]1(O)C(=O)OCc2c1cc1n(c2=O)Cc2cc3c(CN(C)C)c(O)ccc3nc2-1
3. CC(C)n1c(=O)n(C)c2cnc3cc(F)c(-c4ccc(OCCCN5CCCCC5)nc4)cc3c21 + CC[C@@]1(O)C(=O)OCc2c1cc1n(c2=O)Cc2cc3c(CN(C)C)c(O)ccc3nc2-1
4. [2H]c1nc(C)nc([2H])c1-c1cc(NC[C@@H](C)c2cccc3c(C(=O)NC)ccnc23)ncn1 + CC[C@@]1(O)C(=O)OCc2c1cc1n(c2=O)Cc2cc3c(CN(C)C)c(O)ccc3nc2-1
5. CC1COCCN1c1cc(-c2ccnn2C)c2ccnc(-c3ccn[nH]3)c2n1 (stereo unspecified) + CC[C@@]1(O)C(=O)OCc2c1cc1n(c2=O)Cc2cc3c(CN(C)C)c(O)ccc3nc2-1
6. COc1ccc([C@@H](O)c2cc(-c3ncnc4cc(N5CCOCC5)ccc34)c(F)cc2Cl)nn1 + CC[C@@]1(O)C(=O)OCc2c1cc1n(c2=O)Cc2cc3c(CN(C)C)c(O)ccc3nc2-1

1.59
2.14
2.14
2.01
0.74
0.87

---

Test system: SYO-1 tumor spheroids, viability % test/control
ASSAY_NAME: Anticancer human tumor SYO-1 cell line growth inhibition;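 note: spheroids exposed to agents for 7 days before viability read; 100% = DMSO vehicle control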
CONDITION_SUMMARY: second compound 94.9 pM; first compound 1 µM; active compounds read low; spheroids with HUVEC and MSC
Method: Multicellular complex tumor spheroid response to DNA repair inhibitors in combination with DNA-damaging drugs This study explores the anticancer activities of DNA-damaging drugs and inhibitors of DNA damage repair, both as single agents and in combinations. […] Twenty-six patient-derived or established malignant cell lines were evaluated representing sarcoma, melanoma, small cell lung cancer (SCLC), non-small cell lung cancer (NSCLC), as well as bladder, ovarian and pancreatic cancers. […]
Provide the recorded viability, T/C for the entries that follow.
Give bare numbers, in %.

{"columns": ["MOLECULE", "MEASUREMENT_TARGET", "UNITS_LABEL", "viability, T/C"],
 "data": [
  ["COc1cc(C)[nH]c(=O)c1CN1CCc2c(Cl)cc(C(OC)C3COC3)c(Cl)c2C1=O (centres undefined) + COc1cc2c(cc1O)CCNC21CSC2c3c(OC(C)=O)c(C)c4c(c3C(COC1=O)N1C(O)C3Cc5cc(C)c(OC)c(O)c5C(C21)N3C)OCO4", "SYO-1 tumor spheroids, viability % test/control", "%", 20.9],
  ["Cc1cc(C)c(CNC(=O)c2cc(-c3ccc(CN4CCOCC4)cc3)cc3c2cnn3C2CCCC2)c(=O)[nH]1 + COc1cc2c(cc1O)CCNC21CSC2c3c(OC(C)=O)c(C)c4c(c3C(COC1=O)N1C(O)C3Cc5cc(C)c(OC)c(O)c5C(C21)N3C)OCO4", "SYO-1 tumor spheroids, viability % test/control", "%", 99.8]
]}

List viability, T/C for every entry below, keeping the order given.
1. COc1ccc([C@@H](O)c2cc(-c3ncnc4cc(N5CCOCC5)ccc34)c(F)cc2Cl)nn1 + COc1cc2c(cc1O)CCNC21CSC2c3c(OC(C)=O)c(C)c4c(c3C(COC1=O)N1C(O)C3Cc5cc(C)c(OC)c(O)c5C(C21)N3C)OCO4
2. CC1COCCN1c1cc(-c2ccnn2C)c2ccnc(-c3ccn[nH]3)c2n1 (centres undefined) + COc1cc2c(cc1O)CCNC21CSC2c3c(OC(C)=O)c(C)c4c(c3C(COC1=O)N1C(O)C3Cc5cc(C)c(OC)c(O)c5C(C21)N3C)OCO4

[37, 0.6]
